cAMP in HKRK-B7 cells, EC50 reference
- testedOn: T1, human parathyroid hormone receptor (PTHR) (human, UniProt Q03431 27-593)
- T1 sequence: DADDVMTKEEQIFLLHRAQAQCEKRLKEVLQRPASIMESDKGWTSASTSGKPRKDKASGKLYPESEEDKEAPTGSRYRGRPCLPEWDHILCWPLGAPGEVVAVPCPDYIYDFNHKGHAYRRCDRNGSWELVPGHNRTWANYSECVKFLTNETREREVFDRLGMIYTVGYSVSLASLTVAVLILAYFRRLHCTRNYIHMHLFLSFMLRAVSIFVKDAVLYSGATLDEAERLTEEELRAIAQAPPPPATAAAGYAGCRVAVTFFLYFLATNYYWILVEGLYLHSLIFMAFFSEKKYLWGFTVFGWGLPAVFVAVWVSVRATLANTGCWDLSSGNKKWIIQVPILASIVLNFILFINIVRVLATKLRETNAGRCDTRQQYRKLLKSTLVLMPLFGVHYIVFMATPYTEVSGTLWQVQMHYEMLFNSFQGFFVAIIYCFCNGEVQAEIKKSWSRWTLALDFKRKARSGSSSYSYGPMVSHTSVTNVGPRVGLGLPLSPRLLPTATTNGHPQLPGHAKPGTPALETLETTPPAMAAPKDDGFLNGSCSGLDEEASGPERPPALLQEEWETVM
- assaySummary: cell-based or functional assay
Ends that are not written are not given here.
A number alone suffices; assume nM.

1) AVSEHQLLHDKGKSIQDARRRAFLLKLI-NH2 (not fully specified, also called [Ala^18,22,Leu^25,Lys^26]-PTHrP(1-28); AALK-PTHrP(1-28)) [A18,22,L25,K26-PTHrP(1-28)NH]: 0.52

Exam item: Which cAMP in HKRK-B7 cells, EC50 value is on record for AVAEIQLMHQRAKWLNSMRRVEWLRKKLQDVHNF-OH [Mc-hPTH(1-34)OH] ?
Marked response: 3.25

Exam item: Which cAMP in HKRK-B7 cells, EC50 value is on record for AVAEIQLMHQRGKHLNSMERVEALRKKLQDVHNF-OH (also called [A^1,A^3,A^23,Q^10,R^11]-PTH(1-34)OH; [A1,3,23,Q10,R11]-hPTH(1-34)) [[A1,3,23,Q10,R11]-PTH(1-34)OH] ?
Marked response: 1.76

Exam item: Which cAMP in HKRK-B7 cells, EC50 value is on record for AVAEIQLMHNLGKHLNSMERVEALRKKLQDVHNF-OH (also called [A^1,A^3,A^23]-PTH(1-34)OH; [A1,3,23]-hPTH(1-34)) [[A1,3,23]-PTH(1-34)OH] ?
Marked response: 1.93
